molecular target: N-formyl peptide receptor 2 (Homo sapiens); test: FPRL1 fluorescent ligand binding inhibitors, primary screen, selectivity assay for FPR ligand SAR project, cell-based, flow cytometry, HTS counterscreen (AID 725); details: FPRL1-expressing cells, active compounds read high, concentration not given here
In all, about 1,300 compounds went through this assay and fewer than 10 were called active. These entries were drawn from the full list.
assayReadout: inhibition (%)
Numbers only, in %.

- compound: "O=C(C1=C(O)C(=O)N(CCN2CCOCC2)C1c1cccs1)c1ccco1 (stereo unspecified)"
  inhibition [%]: -2
- compound: "O=C(O)CCN1C(=O)C(=O)/C(=C(/O)c2ccccc2)C1c1ccccc1[N+](=O)[O-] (stereo unspecified)"
  inhibition [%]: 1.1
- compound: "COc1ccc(OC)c(C(=O)CC2(O)C(=O)N(C)c3ccccc32)c1 (stereo unspecified)"
  inhibition [%]: 1.1

Hi! Can you tell me inhibition for each of these compounds?
1. CCCCCCN1C(=O)C(=O)/C(=C(/O)c2ccccc2)C1c1ccc(Br)cc1 (stereo unspecified)
2. COc1cccc(Cn2c(=S)[nH]c3c(oc4ccccc43)c2=O)c1
3. CCCOc1ccc(C2C(C(=O)c3cc4ccccc4o3)=C(O)C(=O)N2CCN(C)C)cc1 (stereo unspecified)
4. CCc1c(C)sc(NC(=O)C2C3C=CC(C3)C2C(=O)O)c1C(=O)OC(C)C (stereo unspecified)
5. O=c1c(-c2cccc(Cl)c2)c(C(F)(F)F)oc2c(CN3CCOCC3)c(O)ccc12
6. CCOC(=O)c1cnn2c(=O)c3c(n(CC)c12)CCN(Cc1ccc(OC)cc1)C3
7. O=C(C(Cc1ccccc1)N1Cc2ccccc2C1=O)N1CCOCC1 (stereo unspecified)

Result string:
1. 0.8
2. 3
3. -0.2
4. -6
5. 3.4
6. 1.3
7. -13.3

Each of the following entries comes with a recorded value; kindly state inhibition for each.
1. CC(C)n1c(=O)c2oc3ccccc3c2n(Cc2ccccc2F)c1=O
2. CCCCCCN1C(=O)C(=O)/C(=C(\O)c2ccccc2)C1c1ccc(C(C)C)cc1 (stereo unspecified)
3. O=C(C(c1ccccc1)N1Cc2ccccc2C1=O)N1CCCCCC1 (stereo unspecified)

Result string:
1. 11.7
2. -2.5
3. 1.9

Please state, for each entry, its recorded inhibition.
1. CCOc1ccc(C2/C(=C(/O)c3ccccc3)C(=O)C(=O)N2CC(C)O)cc1 (stereo unspecified)
2. O=C1c2cccc3cccc(c23)N1S(=O)(=O)c1ccccc1
3. CCCCn1c(=O)c2c(nc3n2CCN3Cc2ccco2)n(C)c1=O
4. CCOC(=O)c1c(NC(=O)c2ccc(OC)cc2)sc(C)c1C
5. Cc1ccc(N2C(=O)CSC2c2ccccc2F)cc1C (stereo unspecified)

Result string:
-1.6
-5
-0.5
-3.8
-4.3

Below are some compounds; for each one, tell me its inhibition.
1. CCOC(=O)Cc1c(C)nc2c(C#N)c(C)[nH]n2c1=O
2. Cc1cc(C)cc(N2C(=O)CSC2c2ccccc2Br)c1 (stereo unspecified)

Result string:
1: 5.1; 2: -7.5

Could I get inhibition for every one of these entries?
1. CN(C)CCCN1C(=O)C(O)=C(C(=O)c2ccco2)C1c1ccccc1 (stereo unspecified)
2. Cc1cccc(C(CC(=O)O)NS(=O)(=O)c2ccc(C)cc2C)c1 (stereo unspecified)
3. Cc1onc(-c2c(Cl)cccc2Cl)c1C(=O)NC1CCCCC1
4. Cc1ccc(N2C(=O)CSC2c2ccc(C(C)(C)C)cc2)cc1C (stereo unspecified)
5. CCOc1ccccc1C1C(C#N)=C(SC)NC(=O)C1C(=O)OC (stereo unspecified)
6. Cc1ccc2c(c1)oc(=O)n2C(=O)COc1ccccc1
7. CCOC(=O)c1sc(N2C(=O)C(=O)/C(=C(/O)c3ccccc3)C2c2ccc(O)c(OC)c2)nc1C (stereo unspecified)

Result string:
[9.4, -12.7, -7.3, -24.8, 7.1, 4.9, 0.2]

Each compound below has a reported value. Please supply its inhibition.
1. Cc1ccc(C)c(Cn2c(=O)cc(C)c3c(C)nn(-c4ccccc4)c32)c1
2. Cc1ccc(OC(=O)c2ccc(N3C(=O)c4cccc(N)c4C3=O)cc2)cc1C
3. CCc1c(C)nc2c(-c3ccc(OC)c(OC)c3)c(C)[nH]n2c1=O
4. Cc1cccc(N2C(=O)CSC2c2cccc(F)c2)c1 (stereo unspecified)

Result string:
[-16.2, -3.5, -1.3, -31.8]

Here are 3 compounds. What values of inhibition were reported for them?
1. Cc1cc(C)nc(/N=C(/NC(=O)c2ccccc2)Nc2cccc(Cl)c2)n1
2. COc1ccc(C2C(C(=O)N3CCCC(C)C3)c3ccccc3C(=O)N2C)cc1 (stereo unspecified)
3. O=C(c1ccccc1F)N1c2ncnn2C2(CCCCC2)[C@@H]2CCCC[C@@H]21

Result string:
[-4.7, 2.3, 2.4]

For each of the compounds below, state inhibition.
1. CCOC(=O)c1c(CC(C)C)csc1NC(=O)c1ccccc1F
2. COC(=O)c1c(NC(=O)c2cc(OC)c(OC)c(OC)c2)sc(C)c1C
3. COC(=O)c1c(NC(=O)c2ccc(F)cc2)sc2c1CCC2
4. O=C1O[C@@H]2C[C@H]3C[C@@H]2[C@@H]1[C@H]3C(=O)N1CCc2ccccc21
5. COc1cc(C2C(C(=O)c3cc4ccccc4o3)=C(O)C(=O)N2CCN(C)C)ccc1O (stereo unspecified)
6. CCOC(=O)c1c(NC(=O)c2cccs2)sc2c1CCC(C(C)(C)C)C2 (stereo unspecified)

Result string:
-1.5
-10.3
-10.9
-14.7
-0.3
-4.5

Query string: Please look up its inhibition: CCN(C(=O)c1noc2c1CC(C)CC2)c1cccc(C)c1 (stereo unspecified)
Result string: -9.6
